- assay.text: chemical genetic growth profiling, strain panel (AID 1159580);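 note: tested at 20 µM; growth read once vehicle control cultures reached saturation at 30 °C; 1 = growth at the plate median or of vehicle wells; lower values mean less growth of the strain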
- experimental.setup: S. cerevisiae deletion strains, growth OD, locus YPR163C, strain tif3, hits give low values
The whole screen tested about 5,500 compounds, of which about 2,000 (36%) were called active. About 18% were inconclusive and are not listed. Some of the results follow.
property: normalized growth
Write no unit; give the number alone.

Task: Report normalized growth for C[C@@H]1O[C@@H](OC[C@H]2OC(Oc3c(-c4ccc(O)c(O)c4)oc4cc(O)cc(O)c4c3=O)[C@H](O)[C@@H](O)[C@@H]2O)[C@H](O)[C@H](O)[C@H]1O (stereo not given in full) please.
Result: 0.998

Task: Reported normalized growth, compound CC(C)c1c(O)c(-c2cc3c(c(C(C)C)c2O)CCC2C(C)(C)CCC[C@]32C)cc2c1CCC1C(C)(C)CCC[C@]21C (stereo not given in full) : ____
Result: 1.01

Task: Item `O=c1cc(-c2ccc(O)cc2)oc2cc(O[C@@H]3O[C@H](CO)[C@@H](O)[C@H](O)[C@H]3O)cc(O)c12` has what recorded normalized growth?
Result: 0.982

Task: Data request, read-out normalized growth, for COc1ccc2c3c1OC1C(O)CC=C4C(C2)N(C)CCC431 (stereo not given)
Result: 1.02

Task: Looking for the measured normalized growth of `CC(C)[N+](C)(CCC(C(N)=O)(c1ccccc1)c1ccccc1)C(C)C` , can you help?
Result: 0.998

###

- assay.text: chemical genetic growth profiling, strain panel (AID 1159580);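 note: tested at 20 µM; growth read once vehicle control cultures reached saturation at 30 °C; 1 = growth at the plate median or of vehicle wells; lower values mean less growth of the strain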
- experimental.setup: S. cerevisiae deletion strains, growth OD, locus YER015W, strain faa2, hits give low values
Out of some 5,500 compounds screened, about 2,000 (36%) were called active. Inconclusive results (about 18%) are left out. Some of the results follow.
property: normalized growth
Lab note: record just the number, no unit beside it.

CCCCCCC(C)OC(=O)COc1ccc(Cl)cc1Cl (stereo not drawn) = 0.991

Switching to the query record.
Task: Please give the measured normalized growth for this compound: `COC1=CC(=O)C(C(=O)c2ccccc2)=CC1=O`
Result: 0.98

###

normalized growth by entry:
- assay.text: chemical genetic growth profiling, strain panel (AID 1159580);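 note: tested at 20 µM; growth read once vehicle control cultures reached saturation at 30 °C; 1 = growth at the plate median or of vehicle wells; lower values mean less growth of the strain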
- experimental.setup: S. cerevisiae deletion strains, growth OD, locus YDR001C, strain nth1, hits give low values
About 2,000 (36%) of roughly 5,500 compounds were called active. Inconclusive results (about 18%) are left out. This is one part of the list.
Give the figure only, with no unit attached.

COc1cc(OC)c2ccc(=O)oc2c1 = 0.975
NC(=O)NCCCC(N)C(=O)O (stereo unspecified) = 0.989
CC[n+]1c(-c2ccccc2)c2cc(N)ccc2c2ccc(N)cc21 = 0.953

Task: Reported normalized growth, compound `Cc1[nH]ccc2c1[nH]c1cc(=O)ccc12` : ____
Result: 1.01

Task: Which normalized growth value belongs to `COc1cc2occc2c2oc(=O)ccc12` ?
Result: 1.01

Task: Form field: reported normalized growth of CC(C)c1c(O)c(-c2cc3c(c(C(C)C)c2O)CCC2C(C)(C)CCC[C@]32C)cc2c1CCC1C(C)(C)CCC[C@]21C (stereo partly specified)
Result: 0.984

###

- assay.text: chemical genetic growth profiling, strain panel (AID 1159580);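 note: tested at 20 µM; growth read once vehicle control cultures reached saturation at 30 °C; 1 = growth at the plate median or of vehicle wells; lower values mean less growth of the strain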
- experimental.setup: S. cerevisiae deletion strains, growth OD, locus YHR030C, strain SLT2, hits give low values
Screen size: about 5,500 compounds; about 2,000 (36%) were called active. Roughly 18% stayed inconclusive and do not appear here. The list shows a part of the results.
Listed here are compounds together with their documented normalized growth.
Enter a number only.

Previously resolved entries follow.
Clc1ccc(C=C2c3ccccc3-c3ccccc32)cc1 = 0.873
CCCCCCCCCCCCCCCCCC(=O)OC(CC(=O)O)C[N+](C)(C)C (configuration not stated) = 0.109
O=c1ccc2cc(OC3OC(CO)C(O)C(O)C3O)c(O)cc2o1 (configuration not stated) = 0.985
Cc1cc(Oc2ccc(C(F)(F)F)cc2NS(C)(=O)=O)cc(C)c1Cl = 0.802
O=C1Nc2ccccc2/C1=C\c1ccc(Cl)cc1 = 0.755
CSc1cccc(NC(=S)N=CN(C)C)c1 = 0.882

Task: Reported normalized growth, compound CC(C)C1COc2cc3oc(=O)ccc3cc2O1 (configuration not stated) : ____
Result: 0.0511

Task: For `O=C1NN=C2C3CC4CC12CC1(C3)C(=O)NN=C41` , what is its reported normalized growth?
Result: 1.03

Task: Endpoint output: normalized growth of `NC(=O)OCC(COC(N)=O)c1ccccc1` . Value?
Result: 0.975

Task: For the compound `CCOC(=O)N/N=C\c1cc(Cl)cc(Cl)c1O` , what normalized growth is on record?
Result: 0.512

Task: Report normalized growth for `CN(C)C=Nc1nnc(Sc2nc3c(Cl)cc(Cl)cc3s2)s1` please.
Result: 1.11

Task: # input compound: `O=C(O)Cc1cnc[nH]1` ; wanted: its normalized growth
Result: 0.992

Task: # normalized growth lookup, item `COc1ccc(CCNc2ccc(C(F)(F)F)cc2N)cc1OC`
Result: 0.903

Task: # query: normalized growth of entry O=C(OC1Cc2c(O)cc(O)cc2OC1c1cc(=O)c(O)c2c(O)c(O)cc(C3Oc4cc(O)cc(O)c4CC3O)c2c1)c1cc(O)c(O)c(O)c1 (configuration not stated)
Result: 0.59

Task: Looking for the measured normalized growth of `C/C(=N/NC(=S)Nc1ccc(C(C)C)cc1)c1ccco1` , can you help?
Result: 0.242

Task: What does the data say about its normalized growth? Entry: `C=C(C)[C@H]1COc2cc3oc(=O)ccc3cc2O1`
Result: 0.272

Task: What does the record list as normalized growth for `O=C(O[C@@H]1Cc2c(O)cc(O)cc2O[C@@H]1c1cc(O)c(=O)c2c(O)c(O)cc([C@H]3Oc4cc(O)cc(O)c4C[C@H]3O)c2c1)c1cc(O)c(O)c(O)c1` ?
Result: 1.01

Task: # lookup: normalized growth of `COCCCNC(=S)N/N=C\c1cc(Cl)cc(Cl)c1O`
Result: 0.797

Task: Give its normalized growth value. Item: `CCN(CC)C(=O)c1[nH]c(C)c(C)c1C`
Result: 1

Task: normalized growth for COC(=O)C1OC(=O)C2OC23C1(C)CCC1C2(C)C(OC(C)=O)CC(OC(C)=O)C(C)(C)C2CC(=O)C13C (configuration not stated) ?
Result: 0.997

Task: Report normalized growth for CCC(N)C(O)c1ccc(O)c(O)c1 (configuration not stated) please.
Result: 1.01

From: PubChem BioAssay AID1159580
